# Test system: MG-63
# Procedure details: Induction of apoptosis in human MG63 cells assessed as viable cells at 1 uM after 24 hrs by annexin-V-FITC/propidium iodide staining based flow cytometric analysis (reference value: 89.58%)
# Assay type: functional
# Run conditions: MG-63, 24 h, read-out: Activity
Readout type: viability at 1 µM (%)
The reply should be a number in %, with the unit left off.

Completed entries (count: 3):
| Compound | Unit abbrev | viability at 1 µM |
| --- | --- | --- |
| C=C1CCC2[C@](C)(CCC[C@]2(C)C(=O)OCCCOC(=O)[C@@H]2C(C=O)=Cc3cc4c(cc3[C@H]2c2cc(OC)c(OC)c(OC)c2)OCO4)[C@H]1CCc1ccc2c(OC(C)=O)ccc(OC(C)=O)c2c1 (stereo not given in full) | % | 75 |
| C=C1CCC2[C@](C)(CCC[C@]2(C)C(=O)OCCCCCCOC(=O)[C@@H]2C(C=O)=Cc3cc4c(cc3[C@H]2c2cc(OC)c(OC)c(OC)c2)OCO4)[C@H]1CCc1ccc2c(OC(C)=O)ccc(OC(C)=O)c2c1 (stereo not given in full) | % | 88.8 |
| COc1cc([C@@H]2c3cc4c(cc3[C@H](O)[C@H]3COC(=O)[C@H]23)OCO4)cc(OC)c1OC [PODOFILOX] | % | 51.4 |

What value of measured viability at 1 µM is listed for COC(=O)[C@@H]1C(C=O)=Cc2cc3c(cc2[C@H]1c1cc(OC)c(OC)c(OC)c1)OCO3 [PODOPHYLLIC ALDEHYDE] ?
51.9

What value of measured viability at 1 µM is listed for C=C1CCC2[C@](C)(CCC[C@]2(C)C(=O)OCc2ccc(COC(=O)[C@@H]3C(C=O)=Cc4cc5c(cc4[C@H]3c3cc(OC)c(OC)c(OC)c3)OCO5)cc2)[C@H]1CCc1ccc2c(OC(C)=O)ccc(OC(C)=O)c2c1 (stereo not given in full) ?
10
